- Test target: MAST1, Q9Y2H9
- Sequence (Q9Y2H9 962-1065): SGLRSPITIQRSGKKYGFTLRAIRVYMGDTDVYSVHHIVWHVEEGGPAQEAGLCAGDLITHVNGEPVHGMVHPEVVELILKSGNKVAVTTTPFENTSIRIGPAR
- Assay: holdup assay
- Set-up: key: below the threshold = too weak to quantify, mostly under pKd 3.1 to 4
- Assay context: plain residues with an end cap or a label only (N-terminal biotin on a linker: ttds)
Use 5 as the dividing line for pKd, with the line itself on the 1.0 side and lower values as 0.0.

Example entries begin here.
{"columns": ["Binder", "Answer label"],
 "data": [
  ["RSLEEEESQL [GRASP, Q7Z6J2]", 0.0],
  ["SRPQRTQTQV [HPV67-E6, A4U7F2]", 0.0],
  ["SVWLRKETRV [CYSLTR2, Q9NS75]", 1.0]
]}

Is pKd for TVASEKESVM [SLC1A5, Q15758] at or above 5?
0.0

Is pKd for STLTIFETAL [ABCC4, O15439] at or above 5?
1.0

Is pKd for QSARYRDTEL [TJP2, Q9UDY2] at or above 5?
0.0

Is pKd for SSRTRRETQL [HPV16-E6, P03126] at or above 5?
0.0
